- studySystem: quisqualate type receptors (rat cerebral cortical membrane homogenate)
- methodNotes: 3H-AMPA binding (displacement of 3H-AMPA from the quisqualate type receptors)
- assayContext: displacement of 50% of specific 3H-AMPA binding; 5 nM 3H-AMPA, 0° C., 30 min, pH 7.1
resultType: IC50

Examples with answers:
compound	IC50
N#Cc1cc2nc(O)c(O)nc2cc1[N+](=O)[O-] [Example 2, 6-Cyano-2,3-dihydroxy-7-nitroquinoxaline]	0.06 µg/mL
N#Cc1cc2nc(O)c(O)nc2cc1C(F)(F)F	0.39 µg/mL
N#Cc1cc2nc(O)c(O)nc2cc1Cl	0.82 µg/mL
O=[N+]([O-])c1cc2nc(O)c(O)nc2cc1Cl	0.43 µg/mL

IC50 recorded for this compound, [N-]=[N+]=Nc1cc2nc(O)c(O)nc2cc1[N+](=O)[O-] [Example 3, 6-Azido-2,3-dihydroxy-7-nitroquinoxaline] , is 0.26 µg/mL
